# tgt: V-type immunoglobulin domain-containing suppressor of T-cell activation (Homo sapiens)
# Sequence (Q9H7M9 whole entry, the tested form may be a part): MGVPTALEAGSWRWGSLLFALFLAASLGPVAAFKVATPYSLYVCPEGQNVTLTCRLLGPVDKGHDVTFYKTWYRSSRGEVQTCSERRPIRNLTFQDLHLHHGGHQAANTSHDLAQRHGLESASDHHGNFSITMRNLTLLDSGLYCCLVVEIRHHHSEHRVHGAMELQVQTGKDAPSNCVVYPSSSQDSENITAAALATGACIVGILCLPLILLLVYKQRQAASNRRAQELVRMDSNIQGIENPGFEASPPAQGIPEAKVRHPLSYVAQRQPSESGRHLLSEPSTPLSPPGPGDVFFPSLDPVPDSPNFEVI
# experiment description: Binding affinity to human VISTA assessed as dissociation constant by SPR assay
experimental readout: Kd (nM)
Your answer should be a plain number; it is taken to be in nM.

structure=CC(=O)NCCNCc1cccc(-c2nc3ccc(Br)c(C)c3[nH]2)c1 experimental_readout=Kd unit_abbrev=nM reported_measurement=1160
structure=Cc1c(-c2ccccc2)ccc2nc(-c3ccc(CNCCO)cc3)[nH]c12 experimental_readout=Kd unit_abbrev=nM reported_measurement=1130
structure=Cc1c(-c2ccccc2)ccc2nc(-c3cccc(CNCC(=O)O)c3)[nH]c12 experimental_readout=Kd unit_abbrev=nM reported_measurement=1050

Any idea what its Kd is? The molecule is `Cc1c(-c2ccccc2)ccc2nc(-c3cccc(CNCC[C@@H]4CCC(=O)N4)c3)[nH]c12`
763

Where do these numbers come from? They come from ChEMBL document CHEMBL5321276.
